biological target: α-glucosidase; test: α-Glucosidase inhibition assay (pNPG substrate); details: means ± SD of three replicates
measured-attribute: IC50 (µM)
Lab book: enter the figure in µM, no units written.

API: value(readout=IC50, system=α-glucosidase) for record CC(=CCOc1ccc(C=CCO)cc1)CO [Compound 2]
167

Field entry: CCCCCCCc1cc(=O)c2ccccc2n1C [Compound 1, 2-heptyl-1-methylquinolin-4-one]
92.1
